src = patent US20200222474A1

# Test system: L. acidophilus NCFM
# test protocol: RNA-seq transcriptional analysis of L. acidophilus NCFM growing on plant glycosides
# Assay type: cell-based, Lactobacillus acidophilus
# test context: gene LBA1455 (Putative surface layer protein)
measured parameter: Transcripts per million (rpm)
Give bare numbers, in rpm.

For each listed entry, give its Transcripts per million (rpm).
1. OC[C@H]1O[C@@H](O[C@H]2[C@H](O)[C@@H](O)[C@@H](O)O[C@@H]2CO)[C@H](O)[C@@H](O)[C@H]1O
2. N#C[C@H](O[C@@H]1O[C@H](CO[C@@H]2O[C@H](CO)[C@@H](O)[C@H](O)[C@H]2O)[C@@H](O)[C@H](O)[C@H]1O)c1ccccc1
3. O=c1ccc2cc(O[C@@H]3O[C@H](CO)[C@@H](O)[C@H](O)[C@H]3O)c(O)cc2o1
4. OCc1ccccc1O[C@@H]1O[C@H](CO)[C@@H](O)[C@H](O)[C@H]1O

A.
[53.4, 73.9, 28.7, 18.3]

* * *

# Test system: L. acidophilus NCFM
# test protocol: RNA-seq transcriptional analysis of L. acidophilus NCFM growing on plant glycosides
# Format: cell-based, Lactobacillus acidophilus
# test context: LBA0753 Multi-drug-type permease, COG GEPR
Task for the reader: assign each of the following compounds its reported Transcripts per million (rpm).
One number for each entry, in rpm.

Study these solved cases before continuing.
[[record]]
compound = "OCc1ccccc1O[C@@H]1O[C@H](CO)[C@@H](O)[C@H](O)[C@H]1O [Salicin]"
target_or_test_system = "L. acidophilus NCFM"
observed_measurement = 70.4

[[record]]
compound = "N#C[C@H](O[C@@H]1O[C@H](CO[C@@H]2O[C@H](CO)[C@@H](O)[C@H](O)[C@H]2O)[C@@H](O)[C@H](O)[C@H]1O)c1ccccc1 [Amygdalin]"
target_or_test_system = "L. acidophilus NCFM"
observed_measurement = 26.1

[[record]]
compound = "O=c1ccc2cc(O[C@@H]3O[C@H](CO)[C@@H](O)[C@H](O)[C@H]3O)c(O)cc2o1 [Esculin]"
target_or_test_system = "L. acidophilus NCFM"
observed_measurement = 155


Field: next compound
Q. Give the value of Transcripts per million (rpm) reported for the following: OC[C@H]1O[C@@H](O[C@H]2[C@H](O)[C@@H](O)[C@@H](O)O[C@@H]2CO)[C@H](O)[C@@H](O)[C@H]1O [Lac]
A. 29.5

* * *

# Test system: L. acidophilus NCFM
# test protocol: RNA-seq transcriptional analysis of L. acidophilus NCFM growing on plant glycosides
# Type: cell-based, Lactobacillus acidophilus
# test context: LBA1710 Thermostable pullulanase, COG G
Provide the recorded Transcripts per million (rpm) for the entries that follow.
Answers are plain numbers, in rpm.

Field: example entries. Status: answers known.
[[record]]
smiles_text = "N#C[C@H](O[C@@H]1O[C@H](CO[C@@H]2O[C@H](CO)[C@@H](O)[C@H](O)[C@H]2O)[C@@H](O)[C@H](O)[C@H]1O)c1ccccc1"
measured_parameter = "Transcripts per million (rpm)"
observed_measurement = 26.7

[[record]]
smiles_text = "O=c1ccc2cc(O[C@@H]3O[C@H](CO)[C@@H](O)[C@H](O)[C@H]3O)c(O)cc2o1"
measured_parameter = "Transcripts per million (rpm)"
observed_measurement = 9.6

[[record]]
smiles_text = "OC[C@H]1O[C@@H](O[C@H]2[C@H](O)[C@@H](O)[C@@H](O)O[C@@H]2CO)[C@H](O)[C@@H](O)[C@H]1O"
measured_parameter = "Transcripts per million (rpm)"
observed_measurement = 9.9


# evaluate next
Q. Could you please provide reported Transcripts per million (rpm) for OCc1ccccc1O[C@@H]1O[C@H](CO)[C@@H](O)[C@H](O)[C@H]1O ? Thanks!
A. 10.8
